target: CyclinA2/CDK2 (Homo sapiens); construct: purchased CRELUX Protein Services; test: Fluorescence Polarization (FP) competitive binding assay, Cyclin A2/Cdk2; settings: 8 nM Cyclin A2/Cdk2, 2 nM FAM probe; average of 2-3 independent experiments; read-out: Cyclin A FP IC50;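 note: plates equilibrated two hours at room temperature before polarization reading, IC50 fitted from eight-concentration compound titration curves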
*1 amine or outer side, *2 acyl side, *3 side chain or, on linkers, in order; H or OH if unused. Where a SMILES comes first, the peptide text is derived from it. Bridges are numbered along the chain shown (N, C = ends). [ ]: non-standard residue; d: D form. The star is where a group is joined. X7 = CC(C)C(=O)N1[C@H]2CC[C@@H]1C=C(c1ccc(F)cc1C[C@@H](C(=O)[*:2])N(C)[*:1])C2; NMehhhLys(Me) = CN([C@@H](CCCCCCCN(C)[*:3])C(=O)[*:2])[*:1]; cBuCO(3,3-F2-1-CF3) = O=C(C1(C(F)(F)F)CC(F)(F)C1)*; Pro(trans-4-F) = O=C(O)[C@@H]1C[C@@H](F)CN1; Gly(cPr) = N[C@H](C(=O)O)C1CC1
Each entry below carries its recorded pIC50.
Scale note: pIC50 = -log10(concentration in M).

Query block: Request - read-out pIC50 | tested on CyclinA2/CDK2 (Homo sapiens) | compound CC(C)C[C@@H]1NC(=O)[C@@H](N(C)C(=O)[C@@H](NC(=O)[C@@H]2C[C@@H](F)CN2C(=O)C2(C(F)(F)F)CC(F)(F)C2)C2CC2)CCCCCCCN(C)C(=O)[C@H](Cc2cc(F)ccc2C2=C[C@H]3CC[C@@H](C2)N3C(=O)C(C)C)N(C)C1=O [Example 318] ({cBuCO(3,3-F2-1-CF3)}-[Pro(trans-4-F)][Gly(cPr)][NMehhhLys(Me)]L[X7]; lactam 3-C)
Result block: 7.70
